Please provide measured Tmax for the entries that follow.
Experiment: Canine pharmacokinetic assay
Assay type: in vivo, male Beagle dogs
Settings: male, Beagle, dog, plasma; canine; oral gavage administration 3 mg/kg
Procedure: In a mouse pharmacokinetic assay, male ICR mice (20 g to 25 g) were selected and fasted overnight. Three mice were selected and intragastrically administered with 5 mg/kg of the corresponding compound. The blood of the mice was collected before the administration and at 15 min, 30 min, 1 h, 2 h, 4 h, 8 h, 24 h after the administration. […] The primary pharmacokinetic parameters were analyzed with a WinNonlin 7.0 software, with non-compartmental model. […]
Supply the numeric figure in min, leaving out any unit text.

Which Tmax is reported for this molecule? C[C@H](NC(=O)c1c(C(F)F)nn(C)c1Oc1cccc(C(F)(F)F)c1)c1ccc(C(=O)O)cc1 [Control Compound, reference compound]
60

Record: C[C@H](NC(=O)c1c(C(F)F)nn(C)c1Oc1cccc(C(C)(F)F)c1)c1ccc(C(=O)O)cc1
15

Moving on to C[C@H](NC(=O)c1c(C(F)F)nn(C)c1Oc1csc(C(F)(F)F)c1)c1ccc(C(=O)O)cc1
15
